meta.source: patent EP4471049A1

PROTOCOL DESCRIPTION: Peptide stability in simulated intestinal fluid (SIF)
Format: in vitro ADME
CONDITION LABEL: pig, simulated intestinal fluid (SIF) with porcine pancreatin; 4 h, 37 °C, pH 6.8, porcine pancreatin 10 g/L, 10 µM; read-out: SIF (% remaining 4 h)
*1 amine or outer side, *2 acyl side, *3 side chain or, on linkers, in order; H or OH if unused. Where a SMILES comes first, the peptide text is derived from it. Bridges are numbered along the chain shown (N, C = ends). [ ]: non-standard residue; d: D form. 2Nal = N[C@@H](Cc1ccc2ccccc2c1)C(=O)O; AEF = NCCOc1ccc(C[C@H](N)C(=O)O)cc1; X1 = O=C(Cc1ccc(CN[*:1])cc1)[*:2]; 3Pal = N[C@@H](Cc1cccnc1)C(=O)O; αMeL = CC(C)C[C@](C)(N)C(=O)O; Dab = NCC[C@H](N)C(=O)O
ENDPOINT: remaining at 4 h, 10 µM (%)
Numbers only, in %.

Reported remaining at 4 h, 10 µM for CNC(=O)[C@H](Cc1cccnc1)NC(=O)[C@H](Cc1c[nH]cn1)NC(=O)[C@@H]1CCC(=O)NCc2ccc(cc2)CC(=O)N[C@@H](CO)C(=O)N[C@H]2CCC(=O)NCC[C@H](NC(=O)[C@H](CCC(N)=O)NC(=O)[C@H](Cc3c[nH]c4ccccc34)NC2=O)C(=O)N[C@@H](Cc2ccc(OCCN)cc2)C(=O)N[C@@H](Cc2ccc3ccccc3c2)C(=O)N[C@@](C)(CC(C)C)C(=O)N1 [Compound 34] ([X1]SEWQ[Dab][AEF][2Nal][αMeL]EH[3Pal]-NHMe; lactam 3-6, N-10) : what is it?
56
